Assay: total protein half-life in vivo (active degradation + dilution); higher = more stable protein
Conditions: E. coli NCM3722 delta-lon; growth: N-lim chemostat; doubling time 6 h
Parameter measured: total protein half-life in vivo (h)
Give just the number in h; leave the unit off.

For MGKSIVVVSAVNFTTGGPFTILKKFLAATNNKENVSFIALVHSAKELKESYPWVKFIEFPEVKGSWLKRLHFEYVVCKKLSKELNATHWICLHDITANVVTKKRYVYCHNPAPFYKGILFREILMEPSFFLFKMLYGLIYKINIKKNTAVFVQQFWMKEKFIKKYSINNIIVSRPEIKLSDKSQLTDDDSQFKNNPSELTIFYPAVPRVFKNYELIISAARKLKEQSNIKFLLTISGTENAYAKYIISLAEGLDNVHFLGYLDKEKIDHCYNISDIVCFPSRLETWGLPLSEAKERGKWVLASDFPFTRETLGSYEKKAFFDSNNDDMLVKLIIDFKKGNLKKDISDANFIYRNENVLVGFDELVNFITEEH , what is its reported total protein half-life in vivo?
7.3

Value lookup for total protein half-life in vivo; key = MSDKFGEGRDPYLYPGLDIMRNRLNIRQQQRLEQAAYEMTALRAATIELGPLVRGLPHLRTIHRQLYQDIFDWAGQLREVDIYQGDTPFCHFAYIEKEGNALMQDLEEEGYLVGLEKAKFVERLAHYYCEINVLHPFRVGSGLAQRIFFEQLAIHAGYQLSWQGIEKEAWNQANQSGAMGDLTALQMIFSKVVSEAGESE
4.4

Entry MATDSTQCVKKSRGRPKVFDRDAALDKAMKLFWQHGYEATSLADLVEATGAKAPTLYAEFTNKEGLFRAVLDRYIDRFAAKHEAQLFCEEKSVESALADYFAAIANCFTSKDTPAGCFMINNCTTLSPDSGDIANTLKSRHAMQERTLQQFLCQRQARGEIPPHCDVTHLAEFLNCIIQGMSISAREGASLEKLMQIAGTTLRLWPELVK : reported total protein half-life in vivo = ?
2.04

Fill in: total protein half-life in vivo of MKIAFIGEAVSGFGGMETVIRDVITTFRQQHIQSEMFFFCRNDKMDKGWLEGIKYSCSFSNIRLGFLRRAKHIHALSKWLQEYQPDIVICIDVISCLFAAKARKKSGIDMPVFSWPHFSLDHKKHAEYITCADYHLAISSGIKQQMINRGVAESTINVIFNPVETKDSVIPAPEEGETATFIYVGRMKFEGQKRVKDLLDGLSQAKGNWKLHVLGDGSDFEKCQAYGRELNIDDRIVWYGWQQYPWELVQQDIEKVSALLLTSSFEGFPMTLLEALSWGIPCISADCVSGPADIIQPDVNGHLYQPGDIAGFVTLLNKYIAGEIHIEHEKIPASIDEFYQSKYYDRLHKVIISAISRRK is ___
6.05

Can you look up the measured total protein half-life in vivo of MTTLTARPEAITFDPQQSALIVVDMQNAYATPGGYLDLAGFDVSTTRPVIANIQTAVTAARAAGMLIIWFQNGWDEQYVEAGGPGSPNFHKSNALKTMRKQPQLQGKLLAKGSWDYQLVDELVPQPGDIVLPKPRYSGFFNTPLDSILRSRGIRHLVFTGIATNVCVESTLRDGFFLEYFGVVLEDATHQAGPKFAQKAALFNIETFFGWVSDVETFCDALSPTSFAHIA for me?
0.503

// returns reported total protein half-life in vivo for input MKRASLLTLTLIGAFSAIQAAWAVDYPLPPTGSRLVGQNQTYTVQEGDKNLQAIARRFDTAAMLILEANNTIAPVPKPGTTITIPSQLLLPDAPRQGIIVNLAELRLYYYPPGENIVQVYPIGIGLQGLETPVMETRVGQKIPNPTWTPTAGIRQRSLERGIKLPPVVPAGPNNPLGRYALRLAHGNGEYLIHGTSAPDSVGLRVSSGCIRMNAPDIKALFSSVRTGTPVKVINEPVKYSVEPNGMRYVEVHRPLSAEEQQNVQTMPYTLPAGFTQFKDNKAVDQKLVDKALYRRAGYPVSVSSGATPAASNAPSVESAQNGEPEQGNMLRVTQ
5.59

Which total protein half-life in vivo value is on record for MSESLSWMQTGDTLALSGELDQDVLLPLWEMREEAVKGITCIDLSRVSRVDTGGLALLLHLIDLAKKQGNNVTLQGVNDKVYTLAKLYNLPADVLPR ?
5.57

Consider the sequence shown here: MQYNPLGKTDLRVSRLCLGCMTFGEPDRGNHAWTLPEESSRPIIKRALEGGINFFDTANSYSDGSSEEIVGRALRDFARREDVVVATKVFHRVGDLPEGLSRAQILRSIDDSLRRLGMDYVDILQIHRWDYNTPIEETLEALNDVVKAGKARYIGASSMHASQFAQALELQKQHGWAQFVSMQDHYNLIYREEEREMLPLCYQEGVAVIPWSPLARGRLTRPWGETTARLVSDEVGKNLYKESDENDAQIAERLTGVSEELGATRAQVALAWLLSKPGIAAPIIGTSREEQLDELLNAVDITLKPEQIAELETPYKPHPVVGFK What is its recorded total protein half-life in vivo?
5

total protein half-life in vivo for MIEFSHVSKLFGAQKAVNDLNLNFQEGSFSVLIGTSGSGKSTTLKMINRLVEHDSGEIRFAGEEIRSLPVLELRRRMGYAIQSIGLFPHWSVAQNIATVPQLQKWSRARIDDRIDELMALLGLESNLRERYPHQLSGGQQQRVGVARALAADPQVLLMDEPFGALDPVTRGALQQEMTRIHRLLGRTIVLVTHDIDEALRLAEHLVLMDHGEVVQQGNPLTMLTRPANDFVRQFFGRSELGVRLLSLRSVADYVRREERADGEALAEEMTLRDALSLFVARGCEVLPVVNMQGQPCGTLHFQDLLVEA ?
4.82

Which total protein half-life in vivo is listed for MEYQLTLNWPDFLERHWQKRPVVLKRGFNNFIDPISPDELAGLAMESEVDSRLVSHQDGKWQVSHGPFESYDHLGETNWSLLVQAVNHWHEPTAALMRPFRELPDWRIDDLMISFSVPGGGVGPHLDQYDVFIIQGTGRRRWRVGEKLQMKQHCPHPDLLQVDPFEAIIDEELEPGDILYIPPGFPHEGYALENAMNYSVGFRAPNTRELISGFADYVLQRELGGNYYSDPDVPPRAHPADVLPQEMDKLREMMLELINQPEHFKQWFGEFISQSRHELDIAPPEPPYQPDEIYDALKQGEVLVRLGGLRVLRIGDDVYANGEKIDSPHRPALDALASNIALTAENFGDALEDPSFLAMLAALVNSGYWFFEG ?
4.25
